# Test system: CCRIS mutagenicity, Ames/micronucleus/aberration tests
# assay-name: CCRIS mutagenicity studies
# study-conditions: Test System: AMES SALMONELLA TYPHIMURIUM; Strain/Indicator: TA98; Metabolic Activation: RAT, LIVER, S-9, 3-METHYLCHOLANTHRENE; Method: STANDARD PLATE
The source made the active and inactive calls. How the calls were made is not given here.
recorded-endpoint: mutagenic call

{"columns": ["compound", "recorded-endpoint", "reported"],
 "data": [
  ["O=C1OCCN1N=Cc1ccc([N+](=O)[O-])o1", "mutagenic call", "active; positive"],
  ["O=C1NC(=O)C(c2ccccc2)(c2ccc(O)cc2)N1 (stereo unspecified)", "mutagenic call", "inactive; negative"],
  ["c1ccc2c(c1)ccc1[nH]c3ccc4ccccc4c3c12", "mutagenic call", "inactive; negative"],
  ["O=[N+]([O-])c1cc2[nH]c3ccc4ccccc4c3c2c2ccccc12", "mutagenic call", "active; positive"],
  ["c1ccc2cc3cc4ccccc4cc3cc2c1", "mutagenic call", "active; positive"]
]}

In the following, a different compound is considered.
Asked: Please list mutagenic call recorded for the compound O=[N+]([O-])c1cc2[nH]c3cc([N+](=O)[O-])c4ccccc4c3c2c2ccccc12
Given back: active; positive
